Tested on: ATP;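 also: ATP exposure 15 min at 22 °C before imaging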
protocol-notes: switch fluorescence ratio, 500 uM ATP over buffer (Cy3 cluster intensity, sum of 5 cycles each) (fold (ratio)); higher = stronger signal-on switching upon ATP binding; sequences stand for … in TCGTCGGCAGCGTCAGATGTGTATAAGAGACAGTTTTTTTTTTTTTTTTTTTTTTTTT…TC
cond: aptamer strand: ATP DNA aptamer (quencher-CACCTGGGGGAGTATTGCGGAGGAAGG + anchor), 100 nM annealed; ATP concentration: 500 uM

| input-sequence | switch fluorescence ratio |
| --- | --- |
| CTCATATTGT | 1.01 |
| TATTTACATT | 1.03 |
| GGTTTCGGAA | 1 |
| TTGATGTAAA | 0.997 |
| TAGAATCAGC | 0.99 |
| CTAGGTTTGA | 0.987 |
| TGGACGGCGC | 1.04 |
| GATTAAGAGC | 0.999 |
| ATGGGGAGAA | 1.01 |
| CGATGGGATA | 1.03 |
| ATTTCGGGTT | 1.11 |
| GGATATTGTC | 0.991 |
| TTTTTATACT | 1.02 |
| TTTATGCACT | 1.05 |
| ATTGGATGGG | 0.997 |
| TCGAAGATGT | 0.996 |
| CGAGTCCCCT | 1.04 |
| CAATGTGAGG | 1.01 |
| TTCATACGGG | 1.03 |
| TTTTTAAGAT | 0.995 |

###

Tested on: ATP;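 also: ATP exposure 15 min at 22 °C before imaging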
protocol-notes: switch fluorescence ratio, 500 uM ATP over buffer (Cy3 cluster intensity, sum of 5 cycles each) (fold (ratio)); higher = stronger signal-on switching upon ATP binding; sequences stand for … in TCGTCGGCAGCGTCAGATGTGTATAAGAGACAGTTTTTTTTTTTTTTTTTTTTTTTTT…TC
cond: aptamer strand: ATP DNA aptamer (quencher-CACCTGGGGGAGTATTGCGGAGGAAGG + anchor), 100 nM annealed; ATP concentration: 500 uM
measured-attribute: switch fluorescence ratio

| input-sequence | tested-on | recorded-value |
| --- | --- | --- |
| CAGAGAAAGG | ATP | 0.997 |
| ATTGTGGGAG | ATP | 0.972 |
| TGGGCCATGT | ATP | 0.979 |
| CGGAAGCTCT | ATP | 1.04 |
| GGCTGACCGG | ATP | 1 |
| GTTGTAGCAC | ATP | 1.07 |
| ATGTAAATTT | ATP | 1.01 |
| TAAAGTTTTT | ATP | 1 |
| CTTGGTTGCT | ATP | 0.997 |
| TTTAAATTGA | ATP | 0.986 |
| TCTAAGGGTG | ATP | 1.01 |
| TTGACTAT | ATP | 1.01 |
| TTAAATAAGT | ATP | 1 |
| TCTAGTGGTT | ATP | 1 |
| TATCGCTTGG | ATP | 1 |
| CAGTTAATTG | ATP | 1.03 |
| CTTGGTGACG | ATP | 1.09 |
| AAAGAAACTC | ATP | 1.47 |
| CGTTCGGAGG | ATP | 0.991 |
| AAAGGTTAGG | ATP | 0.958 |
| AAGGGGTCTT | ATP | 0.981 |
| AGTAGGGGGA | ATP | 0.991 |
| ATGAGGGGTA | ATP | 1.01 |
| TGGGATATAT | ATP | 0.954 |
| TTGTGCGGAC | ATP | 1.01 |
| AAGCCAGATG | ATP | 1.08 |
| GAGGGACTGG | ATP | 0.988 |
| TCGCTTAATT | ATP | 1.02 |
| TTTAGAGTGC | ATP | 1 |
| TATGATTCGG | ATP | 0.992 |
| GTATTCAAGA | ATP | 1 |
| CCAGGGGTGC | ATP | 1.48 |
| TAATGGTTCG | ATP | 0.996 |
| TGCATGTATT | ATP | 1.01 |
| TGATAGGACA | ATP | 0.983 |
| CCCGGTTTTT | ATP | 1.06 |
| TGGGGTAGGC | ATP | 1.02 |
| GAGATGAGCG | ATP | 0.997 |
| TTCTGAAAAC | ATP | 1.01 |
| GATGACTTGT | ATP | 0.972 |
| ACGTATTAAT | ATP | 1.12 |
| TTGTTCAAGG | ATP | 0.981 |
| GTATTCGCAA | ATP | 4.73 |

###

Tested on: ATP;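 also: ATP exposure 15 min at 22 °C before imaging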
protocol-notes: switch fluorescence ratio, 500 uM ATP over buffer (Cy3 cluster intensity, sum of 5 cycles each) (fold (ratio)); higher = stronger signal-on switching upon ATP binding; sequences stand for … in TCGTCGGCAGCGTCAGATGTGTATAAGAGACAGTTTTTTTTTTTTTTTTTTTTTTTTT…TC
cond: aptamer strand: ATP DNA aptamer (quencher-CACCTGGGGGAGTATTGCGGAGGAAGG + anchor), 100 nM annealed; ATP concentration: 500 uM

| input-sequence | switch fluorescence ratio |
| --- | --- |
| TCATATACGA | 1.09 |
| TTTTGGAATA | 1.02 |
| TGATTTTATT | 0.974 |
| GCTATCATGG | 0.973 |
| AGAATCGTTG | 1.01 |
| TCTTCTGTCG | 1 |
| GGGGGTTGAA | 1 |
| TAGGGATGAT | 0.97 |
| CAGATTTAAG | 0.994 |
| TATGATGCTA | 1.03 |
| TTCAGTTCGG | 0.994 |
| TTTGGGTGTC | 0.979 |
| ACAGCGGGA | 1.03 |
| CTTACGGAGG | 1.01 |
| GGGATGAGGA | 0.985 |
| AAAAGTTGGT | 1.02 |
| TATAAATGAT | 1.06 |
| TTCAGAGTTT | 0.978 |
| ACTCGGGGGC | 1.09 |
| TAATGTGTTG | 0.994 |
| TTCTTGGGTT | 0.989 |
| TTTATGATGC | 1.01 |
| TGACATTATA | 1.01 |
| GATTTACCAG | 1.03 |
| CGATGTGTGC | 1.17 |
| GGCCAAGTTG | 0.994 |
| GGGGCAAAAA | 1.08 |
| TTAATTGCGA | 0.986 |
| CGATAGTATT | 0.985 |
| AGTTGGGTGC | 0.99 |
| CGTACCATCC | 1.6 |
| GAGAGGGAAT | 1.02 |
| TGTTTGAGAT | 1.01 |
| AGATAGTCTC | 0.991 |
| TCGGTTGTGT | 1.08 |
| AGGAATGACT | 1 |
| GATTTCATTT | 1.01 |
| TGGGCCTTGT | 1.02 |
| CGATGTGCTT | 1.01 |
| AACTCACGGG | 1.63 |
| CGTGGCGGTT | 1.09 |
| GTTTTTGCTG | 0.976 |
| AACAGTTCTG | 0.986 |
| AGATGGGCAG | 0.996 |
| CAGAGTGTGA | 1.01 |
| GAAAGGAAAA | 0.975 |
| ATGAGGGGGT | 1.03 |
| GCTTCTTAGT | 1.03 |
| ATGGCAACAT | 1.01 |
| ATCCGTATGT | 1.05 |
| GGTCCGGGCT | 1 |
| CTTTGTTTTT | 0.989 |
| CTTCTAAGTC | 1 |
| GATGAACGTC | 1.11 |
| GATAGGCGGG | 0.979 |
| TTACTAATTT | 1.05 |
| ACTGTATATT | 1.18 |
| GTTTGTCCGA | 1.01 |
| ATCGAGTCTA | 0.953 |
| AATATATGCA | 0.991 |
| TTTTTGGGGT | 0.999 |
| CTTGGGGCTA | 1.03 |
| GTAGAGAACT | 1 |
| CGTATGACTA | 0.984 |
| ATTTTCGTTA | 1.04 |
| TTTTGTTAAA | 1.01 |
| GGCTATGTGG | 0.987 |
| TATTGTGGGT | 0.98 |
| AGAACTGGCT | 0.988 |
| GCTGATTTGT | 0.989 |
| TCTAGCAACG | 1.01 |
| ACGGGGGGCA | 1.01 |
| TTATTGAAGC | 0.983 |
| TTTGTGTGTA | 0.985 |
| TGAAGGGTTC | 1.12 |
| TTGTACGCCA | 1.31 |
| AGTCAGATGG | 0.981 |
| TTGAGGGGTT | 0.979 |
| CGTTTGGGGT | 1 |
| AGACCGCAGT | 1.14 |
| CAGGAAATGG | 0.999 |
| CAGGTAGTGT | 1.02 |
| TTTGATATAA | 0.991 |
| AACGGGATGG | 1.02 |
| TTCCTAAAAG | 0.979 |
| GGCTGATGCA | 0.938 |
